# measured target: Retinoic acid receptor RXR-alpha (Homo sapiens)
# assay: ATG_RXRa_TRANS: Attagene TRANS-FACTORIAL HepG2 Assay for human Retinoid X Receptor alpha (RXRa) (AID 2283012)
Inconclusive results are not listed. Calls of active or inactive are those of the source. The calls were made as follows: active = hit-call score of the fitted dose curve at least 0.9, where 1 is the maximum; inconclusive = response in the unintended direction; inactive = score below 0.9.
Thanks in advance; please answer with one of these: True for active, False for inactive

CC(C)(C)c1ccc(N)cc1 :: False
C=CCOCC(O)CCl (stereo not given) :: False
COCCOCCOCCOCCOC :: False

Prompt: For `OCCCS` , what call appears in the results of this test?
Completion: False

Prompt: For `Cc1cccc(C(=O)O)c1` , what call appears in the results of this test?
Completion: False

Prompt: For `C=C(C)CCO` , what call appears in the results of this test?
Completion: False

Prompt: For `Nc1ccc(Oc2ccc(N)c(N)c2)cc1` , what call appears in the results of this test?
Completion: False

Prompt: For `CC(C)c1ccc2cc(C(C)C)ccc2c1` , what call appears in the results of this test?
Completion: False
